Source of measurements: PubChem BioAssay AID2305

- System: P. falciparum 3D7 growth, pLDH absorbance
- protocol.description: blood-stage malaria parasite growth potency – strain 3D7, dose response (AID 2305)

{"molecule": "O=C(Nc1cccc(-c2nn3ccccc3c2-c2ccnc(Nc3ccccc3)n2)c1)c1c(F)cccc1F", "IC50 [nM]": 720}
{"molecule": "Cc1nc2nc(N)nc(N)c2c(C)c1Cc1ccc(C(F)(F)F)cc1", "IC50 [nM]": 750}
{"molecule": "CN1CCC(NCc2ccc(-c3ccc(S(=O)(=O)NCc4ccccc4)c(F)c3)cc2)CC1", "IC50 [nM]": 610}
{"molecule": "O=C(Nc1ccc(F)cc1)N1CCCN(c2ccnc3cc(Cl)ccc23)CC1", "IC50 [nM]": 790}
{"molecule": "O=C(N[C@H]1CCN(Cc2ccc(OCCCN3CCCCC3)cc2)C1)c1cc(Cl)cc(Cl)c1", "IC50 [nM]": 620}
{"molecule": "CCc1c[nH]c2c(N(c3ccccc3)S(C)(=O)=O)cc(C(=O)N[C@@H](Cc3ccccc3)[C@H](O)CNCc3cccc(C(F)(F)F)c3)cc12", "IC50 [nM]": 1000}
{"molecule": "CC(C)(c1ccccc1)c1ccc(O)c(CN2CCOCC2)c1", "IC50 [nM]": 980}
{"molecule": "Cc1csc(NC(=O)c2cn(-c3ccccc3)nc2-c2cccs2)n1", "IC50 [nM]": 910}
{"molecule": "CCCCCN1CCC(NC(=O)c2ccc(C(=O)Nc3ccc(C(C)C)cc3)cc2)C1 (centres undefined)", "IC50 [nM]": 950}

---

# reported pIC50; entries follow
- System: P. falciparum 3D7 growth, pLDH absorbance
- protocol.description: blood-stage malaria parasite growth potency – strain 3D7, dose response (AID 2305)
pIC50: −log10 of the molar value.

{"molecule": "COCCOC(=O)C(=O)c1c(-c2ccccc2)c(-c2ccc(OC)c(OC)c2)c2c3cc(OC)c(OC)cc3ccn12", "test.target": "P. falciparum 3D7 growth, pLDH absorbance", "pIC50": 6.30}
{"molecule": "Cc1cccc2[nH]c(-c3ccc(-c4ccc(CNCCCN5CCCC5=O)cc4)s3)nc12", "test.target": "P. falciparum 3D7 growth, pLDH absorbance", "pIC50": 6.12}
{"molecule": "O=C(Cc1ccc(Nc2nccc(Nc3cccc4[nH]ncc34)n2)cc1)Nc1ccc(C(F)(F)F)cc1", "test.target": "P. falciparum 3D7 growth, pLDH absorbance", "pIC50": 6.05}
{"molecule": "COCCNc1nc(N2CCC(CNC(=O)c3ccc(-c4ccc(C(=O)N(C)C)cc4C)cc3)CC2)nc2cc(OC)c(OC)cc12", "test.target": "P. falciparum 3D7 growth, pLDH absorbance", "pIC50": 5.99}
{"molecule": "CC(C)COc1ccc(Cl)cc1Cc1nc(-c2nc3ccc(CN4CCCC4)cc3[nH]2)co1", "test.target": "P. falciparum 3D7 growth, pLDH absorbance", "pIC50": 6.14}
{"molecule": "Cc1ccccc1C1CCN(C2CCC(NC(=O)c3ccc(-c4ccccc4F)o3)CC2)CC1 (centres undefined)", "test.target": "P. falciparum 3D7 growth, pLDH absorbance", "pIC50": 5.98}
{"molecule": "CNCCNC(=O)C1Cc2c([nH]c3c(C)cccc23)C(c2ccc(Cl)c(Cl)c2)N1 (centres undefined)", "test.target": "P. falciparum 3D7 growth, pLDH absorbance", "pIC50": 6.14}
{"molecule": "Cc1cc(O)c(CN(C)Cc2ccc(N(C)C)cc2)cc1C(C)C", "test.target": "P. falciparum 3D7 growth, pLDH absorbance", "pIC50": 6.26}
{"molecule": "CCNc1cc(C(=O)N[C@@H](Cc2ccccc2)[C@H](O)CNC(C)(C)Cc2ccccc2)cc(N2CCCC2=O)c1", "test.target": "P. falciparum 3D7 growth, pLDH absorbance", "pIC50": 6.59}

---

- System: P. falciparum 3D7 growth, pLDH absorbance
- protocol.description: blood-stage malaria parasite growth potency – strain 3D7, dose response (AID 2305)
IC50 less than 700 nM is fulfilled; IC50 greater than or equal to 700 nM is not fulfilled.

{"molecule": "Cc1cc(CN2CC[C@H](NC(=O)c3ccc(Cl)c(Cl)c3)C2)ccc1OCCN1CCCC1", "class.label": "not fulfilled"}
{"molecule": "CC1CN=C(c2cccc(NC(=O)Nc3cccc(C4=NCC(C)N4)c3)c2)N1 (stereo not given)", "class.label": "fulfilled"}
{"molecule": "CC1(CCc2ccccc2)N=C(Nc2ccc(Cl)cc2)N=C(N)C1c1ccc(Cl)c(Cl)c1 (stereo not given)", "class.label": "fulfilled"}
{"molecule": "Cc1csc(-c2nonc2NC(=O)COc2ccccc2C(C)C)n1", "class.label": "fulfilled"}
{"molecule": "Cc1ccccc1NC(=S)NC1CCN(CCCCCNC(=O)/C=C/c2ccc(Cl)c(Cl)c2)CC1", "class.label": "not fulfilled"}
{"molecule": "Cc1[nH]c2cc(F)ccc2c1C1=CCN(CCCCC2(C)C(=O)Nc3c(F)cccc32)CC1 (stereo not given)", "class.label": "fulfilled"}
{"molecule": "COc1ccc(-c2cc(Nc3nc(-c4cccc(Cl)c4)nc4ccccc34)ccn2)cc1", "class.label": "not fulfilled"}
{"molecule": "CCNc1cc(C(=O)N[C@@H](Cc2ccccc2)[C@H](O)CNC(C)(C)CSCC(C)C)cc(N2CCCC2=O)c1", "class.label": "fulfilled"}
{"molecule": "c1ccc2c(CNc3nc(NCC4CCCCC4)nc4nc[nH]c34)cccc2c1", "class.label": "not fulfilled"}
{"molecule": "CC(=O)Nc1ccc(C(=O)Nc2ccc(-c3csc(-c4nc5ccccc5[nH]4)c3)cc2)cn1", "class.label": "fulfilled"}
{"molecule": "Cc1ccc(N2C(N)=NC(N)=NC2c2ccccc2)cc1 (stereo not given)", "class.label": "fulfilled"}
{"molecule": "O=C(Nc1ccc(C(F)(F)F)cc1)c1cc(Br)cnc1NCCCn1ccnc1", "class.label": "not fulfilled"}
{"molecule": "CN(CCCN(C)c1cc(NC(=O)c2cccc(F)c2)ccn1)Cc1cccc(O)c1", "class.label": "not fulfilled"}
{"molecule": "CCN(CCCN1CCCCC1)c1nccc(Nc2ccc(Cl)cc2)n1", "class.label": "not fulfilled"}
{"molecule": "CC1CN(S(=O)(=O)c2ccc(NC(=O)c3cc(-c4ccccc4O)n[nH]3)cc2)CC(C)O1 (stereo not given)", "class.label": "not fulfilled"}
{"molecule": "CCCC(=O)c1cnc2cc(O)ccc2c1Nc1ccccc1C", "class.label": "fulfilled"}
{"molecule": "CC(C(=O)OCCOCn1cnc2c(=O)[nH]c(N)nc21)N(C)C(=O)OC(C)(C)C (stereo not given)", "class.label": "not fulfilled"}
{"molecule": "O=C(O[C@@H]1CN[C@H](C#Cc2cc3ncnc(Nc4ccc5c(cnn5Cc5cccc(F)c5)c4)c3s2)C1)N1CCCC1", "class.label": "not fulfilled"}
{"molecule": "N#Cc1ccc2[nH]cc(CN3CCC4(CC3)CN(CCNCc3ccccc3)C(=O)O4)c2c1", "class.label": "not fulfilled"}
{"molecule": "C=C(NC(=O)c1cc(C)cc(C)c1)C(=O)OC", "class.label": "fulfilled"}

---

- Tested on: P. falciparum 3D7 growth, pLDH absorbance
- protocol.description: blood-stage malaria parasite growth potency – strain 3D7, dose response (AID 2305)
pIC50: −log10 of the molar value.
# reported pIC50; entries follow

{"molecule": "CCOC(=O)CCCOc1cc(Cc2cnc(N)nc2N)cc(OC)c1OC", "pIC50": 6.62}
{"molecule": "CN1CCN(CCCN(Cc2csc(-c3ccc(CNCc4ccccc4)cc3)n2)C(=O)Nc2ccc3ccccc3c2)CC1", "pIC50": 5.96}
{"molecule": "COc1ccc(CNC2CCN(C)CC2)cc1-c1ccc(S(=O)(=O)NCc2cccnc2)s1", "pIC50": 6.08}
{"molecule": "CCCn1c(Sc2ccc(C#N)c([N+](=O)[O-])c2)nnc1-c1cc(OC)cc(OC)c1", "pIC50": 6.14}
{"molecule": "Cc1nc(-c2ccc(C#N)cc2)sc1C(=O)NCCCCN1CCC(c2ccc3c(c2OCCO)CCCC3)CC1", "pIC50": 6.07}

---

# reported pIC50; entries follow
- Test system: P. falciparum 3D7 growth, pLDH absorbance
- protocol.description: blood-stage malaria parasite growth potency – strain 3D7, dose response (AID 2305)
pIC50: −log10 of the molar value.

{"compound": "O=S(=O)(c1cccc(Cl)c1F)N(CCC(O)(C(F)(F)F)C(F)(F)F)Cc1cccc(O)c1", "pIC50": 6.04}
{"compound": "COC(=O)C(Cc1ccccc1)C(CSCc1ccc(OC)cc1)C(=O)N[C@@H](C(=O)OC(C)(C)C)c1ccc(C(C)(C)C)cc1 (some centres undefined)", "pIC50": 5.99}
{"compound": "Cc1cc(C)n2nc(C(=O)Nc3cc(C(F)(F)F)ccc3N3CCOCC3)nc2n1", "pIC50": 6.92}
{"compound": "CCCC1N=C(N)N=C(N)N1c1cccc(C(F)(F)F)c1 (centres undefined)", "pIC50": 6.23}
{"compound": "O=S(=O)(/C=C/c1ccccc1)N(Cc1ccc(-c2ccc(CNCCOc3ccccc3)cc2)cc1)CC1CCCCN1 (centres undefined)", "pIC50": 6.13}
{"compound": "COc1ccc(CNCCCCCCNCc2ccc(OC)c3ccccc23)c2ccccc12", "pIC50": 6.24}
{"compound": "COc1ccc2nccc([C@@H](O)CN3CCC(NCc4nc5c(F)cc(F)cc5[nH]4)CC3)c2c1", "pIC50": 6.24}
{"compound": "CCCCCCNC(=O)C1Cc2c([nH]c3ccc(F)cc23)C2(CCN(Cc3ccccc3)CC2)N1 (centres undefined)", "pIC50": 6.06}
{"compound": "COc1ccc(NC(=O)c2ccc(Br)c(C)c2)cc1N1CCN(CCCCc2ccccc2)CC1", "pIC50": 6.09}
